Reference for the values: paper PMC11435058

- Tested on: HCT-15
- Protocol text: NCI-60 anticancer screen (SRB; single dose and five doses)
- Condition label: Homo sapiens, HCT-15
Outcome measure: pIC50
One number for each entry, as −log10 of the molar value.

# example entries with known answers
{"Compound string": "Cc1[nH]c(=S)sc1C(=O)/C=C/c1cccc(Cl)c1", "Target system": "HCT-15", "Reported measurement": 5.45}
{"Compound string": "Cc1[nH]c(=S)sc1C(=O)/C=C/c1cccc([N+](=O)[O-])c1", "Target system": "HCT-15", "Reported measurement": 5.46}
{"Compound string": "Cc1[nH]c(=S)sc1C(=O)/C=C/c1ccc(Cl)cc1", "Target system": "HCT-15", "Reported measurement": 5.27}

Give its pIC50 value. Item: COc1cc(/C=C/C(=O)c2sc(=S)[nH]c2C)cc(OC)c1OC
5.38

* * *

- Test system: SK-MEL-28
- Protocol text: NCI-60 anticancer screen (SRB; single dose and five doses)
- Condition label: Homo sapiens, SK-MEL-28, 48 h, read-out: Growth Percentage
param class (str): category from activity at 10 µM; see ranges bottom range: < 50%; center range: ≥ 50% and < 90%; top range: ≥ 90%

{"Compound": "Cc1[nH]c(=S)sc1C(=O)/C=C/c1ccc(Cl)cc1 [2f]", "Target system": "SK-MEL-28", "Answer label": "bottom range"}
{"Compound": "Cc1[nH]c(=S)sc1C(=O)/C=C/c1ccc([N+](=O)[O-])cc1 [2i]", "Target system": "SK-MEL-28", "Answer label": "bottom range"}

# bin label for COc1ccc(/C=C/C(=O)c2sc(=S)[nH]c2C)cc1OC [2o]
center range

Repeat for the following compound: Cc1[nH]c(=S)sc1C(=O)/C=C/c1cccc(F)c1 [2b]
top range

And Cc1[nH]c(=S)sc1C(=O)/C=C/c1cccc(Cl)c1 [2e] ?
bottom range

Now the same for Cc1[nH]c(=S)sc1C(=O)/C=C/c1ccc(Br)cc1 [2g]
center range

Item: COc1cc(/C=C/C(=O)c2sc(=S)[nH]c2C)cc(OC)c1OC [2p]
bottom range

Same question for COc1ccc(/C=C/C(=O)c2sc(=S)[nH]c2C)cc1 [2l] please.
top range

Next compound: Cc1[nH]c(=S)sc1C(=O)/C=C/c1ccccc1 [2a]
center range

Another compound to look at: Cc1ccc(/C=C/C(=O)c2sc(=S)[nH]c2C)cc1 [2j]
top range

Further, for COc1cccc(/C=C/C(=O)c2sc(=S)[nH]c2C)c1OC [2m] ?
center range

* * *

- Tested on: HCC-2998
- Protocol text: NCI-60 anticancer screen (SRB; single dose and five doses)
- Condition label: Homo sapiens, HCC 2998, read-out: LC50
Response field label takes satisfied when CC50 is strictly below 30 µM and not satisfied in all other cases.

Here's what some known entries look like.
{"Compound": "Cc1[nH]c(=S)sc1C(=O)/C=C/c1cccc(Cl)c1", "Answer label": "satisfied"}
{"Compound": "COc1cc(/C=C/C(=O)c2sc(=S)[nH]c2C)cc(OC)c1OC", "Answer label": "not satisfied"}
{"Compound": "Cc1[nH]c(=S)sc1C(=O)/C=C/c1ccc([N+](=O)[O-])cc1", "Answer label": "not satisfied"}
{"Compound": "COc1ccc(/C=C\\c2cc(OC)c(OC)c(OC)c2)cc1O [CA-4, Combretastatin-A4, reference compound]", "Answer label": "satisfied"}
{"Compound": "Cc1[nH]c(=S)sc1C(=O)/C=C/c1ccc(Br)cc1", "Answer label": "not satisfied"}

# TODO verify CC50 < 30 µM strictly for this compound: Cc1[nH]c(=S)sc1C(=O)/C=C/c1ccc(F)cc1
not satisfied

Can you handle Cc1[nH]c(=S)sc1C(=O)/C=C/c1cccc([N+](=O)[O-])c1 next?
satisfied
